procedureDetails: yeast display, Sf9 membrane polyspecificity reagent, FACS + sequencing; frameworks hold sequencing errors
measuredQuantity: polyreactivity (PSR sort gate)

>>> result("QVQLVESGAGLVQAGGSLRLSCAASGSIFNYYAMVWYRQAPGKERELFAGITTSGGSTYYADSVKGSFTISRDNAKNSVYLQMKSLKPVDTAVYYCGAYDHISSTYFLDDSWGQGTQVTVSS")
"low polyreactivity"
>>> result("QDQHVESGGGLVQAGGSLRLSCAASGLIFYYNMGWNRQAPRKERELVAAISSSGGSTSYADSVKGRFTISRDNAKNTVYLQMNSLKPEDTAVYYCAADSYPAYLGFVGFDYWGQGTQVTVSS")
"low polyreactivity"
>>> result("QVQLVESGGRLVQAGGSLRLSCAASGLIFVHYAMGWYRQSPGKERELVAAISAGGGSTYYADSVKGRFTISRDNAKNTVYLQMNSLKPEDTAVYYCNARVVNYVRPRTGAREYDFWGQGTQVTVSS")
"high polyreactivity"
>>> result("QVQLVESGGGLVQAGGSLRLRCAASGSTIVQYDMGWYRQAPGKERELVAAISRTGSTYYADSVKGRFTISRDNAKNTVYLQINSLKPEDTAVYYCNAEFWRGTYRFGYWGQGTQVTVSS")
"low polyreactivity"
>>> result("QVQLVESGGGLVQAGGSLRLSCAASGGIFGLYTMGWYRQAPGKERELVAAISKTGGSTYYADSVKGRFTISRDNAKNTVYLQMNSLKPEDTAVYYCAKAGRYANLPYGYWGQGTQVTVSS")
"high polyreactivity"
>>> result("QVQLVDSGGGLVQAGGSLRLSCAASGSTFSTYPMGWYRQAPGKERELVAAISRSGGTTYYADSVKGRFTISRDNAKNTVYLQMNSLKQEETAVYYCNAVTRYTQIMDYWGQGTQVTVSS")
"high polyreactivity"
>>> result("QVQLVESGGGLVQAGGSLRLSCAASGTTIYTNAKGWYRQAPGKEREFVAAISWSGSSTYADSVKGRFTISRDNAKNTFYLQMNSLKPEDTAVYYCAADWFKQRTDYYWGQGTQVTVSS")
"low polyreactivity"
>>> result("QVQLVESGGGLVQAGGSLRLSCAASGGIFGSYAMGWYRQAPGKERELVAAISWRGGSTYYADSVKGRFTISRDNAKNTVYLQMNSLKPEDTAVYYCAARYRWGYSTSYSYRFDYWGQGTQVTVSS")
"high polyreactivity"
>>> result("QVQLVESGGGLVQAGGSLRLSCAASGRIFNYNAMGWYRQAPGKEREFVATISGRAGRTYYADSVKGRFTISRDNAKNTVYLQMNSLKPEDTAVYYCNAGQWRYPGLYYYWGQGTQVTVSS")
"high polyreactivity"
>>> result("QVQLVESGGGLVQAGGSLRLSCAASGFIFVRYAMGWYRQAPGKERELVAAISSGGSTKYADSVKGRFTISRDNAKNTVYLQMNSLKPEDTAVYYCAADATPGRGVDYWGQGTQVTVSS")
"high polyreactivity"
>>> result("QVQHVESGGGLVQAGGSNRLSCASSGSTFPGNAMGWYRQAPGKERELVARINDGADTNYADSVKGRFTISRDNAKNTVFLQMNSLKPEDTAVYYCAKPFYDGRTHFVSWGQGTQVTVSS")
"low polyreactivity"

====

procedureDetails: yeast display, Sf9 membrane polyspecificity reagent, FACS + sequencing; frameworks hold sequencing errors
measuredQuantity: polyreactivity (PSR sort gate)

>>> result("QVQLVESGGGLVQAGGSLRLSCAASGSTFVWYAMGWYRQAPGKERELVASITSGGNTNYADSVKGRFTISRDNAKNTVYLQMNSLKPEDSAVYYCNAVRSQRSLSSRYYYWGQGTQVTVSS")
"low polyreactivity"
>>> result("QFQLVESGVGLVQAGGSLRLSCAASGRIFTNYAMGWYRQAPGKERELVASINYSGATRNYADSVKGRFTISRDNAKNTVYLQMNSLKPEDTAVYYCNADIYPDLYGSTNYDFNYWGQGTQVTVSS")
"low polyreactivity"
